Item-by-item account of melting point

O=C(O)c1cnc2n(c1=O)CCC=C2Nc1ccccc1    197 to 198 °C
COc1ccc2c(Cc3c(Cl)cncc3Cl)nnc(Cl)c2c1    156 to 166 °C
CCOC(=O)c1ccc2c(c1)C(=C1CCN(C)CC1)c1ccccc1CC2    85 to 87 °C
N#CC(c1ccc(Cl)c(Cl)c1)c1c(Cl)cc(NN)cc1Cl (stereo not given)    183 to 185 °C
CS(=O)(=O)[C@H]1CN(Cc2ccccc2)C[C@@H]1S(C)(=O)=O    56.5 °C

Ask: Please supply the value of reported melting point for the item COc1ccc(CN2CCCc3cc(O)c(OC)cc3C2)cc1
Result: 105 to 107 °C

Ask: Please supply the value of reported melting point for the item CC(C)(C)OC(=O)N[C@H](C(=O)Br)c1ccccc1
Result: 108 to 109 °C

Ask: Please supply the value of reported melting point for the item O=C(O)n1ccc2c(OCc3ccccc3)c(Cc3ccccc3)ccc21
Result: 181 to 183 °C

Ask: Please supply the value of reported melting point for the item CCOC(=O)Cn1c(=O)c2cc(CBr)ccc2n(Cc2ccc(Cl)c(Cl)c2)c1=O
Result: 128 to 129 °C

Ask: Please supply the value of reported melting point for the item COc1ccc(N2CCOCC2)c2sc(-c3nc4c([nH]3)CCN(C(C)=O)CC4)nc12
Result: 195 to 197 °C

###

Item-by-item account of melting point
# value in °C; strip the unit string

CCOc1ccc(CN2C(=O)C(C)(c3ccccc3Cl)c3cc(Cl)ccc32)c(OC)c1 (stereo unspecified)    124
COCc1ccn2nc(SCc3ccccc3)nc2n1    92

Please examine the following record next.
Ask: Please supply the value of reported melting point for the item Cc1ccc(C(=O)Cn2cncn2)cc1
Result: 118

###

resultType: melting point

Ask: Please supply the value of reported melting point for the item COc1ccc(-c2c(Cl)ncn2-c2ccc(S(C)(=O)=O)cc2)cc1F
Result: 196 °C

Ask: Please supply the value of reported melting point for the item C#CCc1c(C)cc(=O)n(O)c1-c1ccccc1
Result: 200 °C

Ask: Please supply the value of reported melting point for the item N#CC1(N2CCC(n3c(=O)[nH]c4ccccc43)CC2)CCCCC1
Result: 199 to 201 °C

Ask: Please supply the value of reported melting point for the item CC1(C)COC(=S)N(Cc2ccccc2NS(=O)(=O)C(F)(F)F)C1
Result: 130 °C

Ask: Please supply the value of reported melting point for the item O=C(O)CCc1ccc(O[C@H]2CCc3ccccc32)cc1
Result: 112 to 113 °C

Ask: Please supply the value of reported melting point for the item Cc1cccc(CCOc2ccc(C#N)cc2)n1
Result: 66 to 67 °C

Ask: Please supply the value of reported melting point for the item COC(=O)c1ccc(OCCCN2CCC(C(O)(c3ccc(F)cc3)c3ccc(F)cc3)CC2)c(OC)c1
Result: 131 to 132 °C

Ask: Please supply the value of reported melting point for the item O=S(=O)(NCCCCCCCCCCCCBr)c1ccc(Cl)cc1
Result: 70 to 73 °C

Ask: Please supply the value of reported melting point for the item NC1=NC(Br)=C(c2ccc(C(F)(F)F)cc2)c2ccccc2C1
Result: 227 to 229 °C

Ask: Please supply the value of reported melting point for the item COC(=O)c1ccc(-n2cccc2)cc1
Result: 128 to 129 °C

Ask: Please supply the value of reported melting point for the item CC(=O)CC(=O)OCN1C(=O)c2ccccc2C1=O
Result: 106 to 109 °C

###

resultType: melting point

Worked examples follow.
COc1ccc(S(=O)(=O)N2CCc3cccc(NC(=O)c4ccncc4)c32)cc1    219 to 220 °C
COc1cc(-c2ccc(C=O)o2)ccc1Br    127 to 128 °C
N#Cc1cccc(CN2CCc3ccc(C(=O)CCCC4CCN(Cc5ccccc5Cl)CC4)cc3CC2)c1    121 to 122 °C
CC(C)(C)OC(=O)N[C@@H](Cc1ccccc1)C(=O)C=[N+]=[N-]    87 to 90 °C
CC(C)(C)OC(=O)N1CCC[C@H]1CNc1ccc2nccn2n1    161 to 162 °C

Ask: Please supply the value of reported melting point for the item CCn1cnc2c(Nc3cccc(Cl)c3)nc(NCCN)nc21
Result: 79 to 80 °C

Ask: Please supply the value of reported melting point for the item O=C(CCNC(=O)[C@H](Cc1ccc(-c2ccccc2)cc1)NCP(=O)(Oc1ccccc1)Oc1ccccc1)Oc1ccc2c(c1)CCC2
Result: 89 to 91 °C

Ask: Please supply the value of reported melting point for the item O=C1c2cc(Cl)c(Cl)cc2C(=O)N1CCN1CCC(c2noc3cc(F)ccc23)CC1
Result: 132 to 134 °C

Ask: Please supply the value of reported melting point for the item CON(C)C(=O)CC1CN=C(c2cc3cccc(N(C)S(=O)(=O)c4cccs4)c3[nH]2)S1 (centres undefined)
Result: 153 to 154 °C

###

resultType: melting point

COC(=O)C1CC(O)CN1C(=O)c1ccc2c(c1)OCCO2 (stereo unspecified)    185 °C

Please examine the following record next.
Ask: Please supply the value of reported melting point for the item CC(=O)C1C(C)CC2C3CCC4=CCC=CC4(C)C3CCC21C (stereo unspecified)
Result: 175 °C

###

Item-by-item account of melting point

Worked examples follow.
CCNc1nc2n(n1)Cc1ccccc1-2    150 to 152 °C
O=c1[nH]c2ccccc2c(=O)c2cc(Cl)ccc12    290 to 295 °C
O=[N+]([O-])c1cc(NCCO)ccc1NCC(F)(F)F    93 to 95 °C
Cc1nc(NC(=O)c2cnn3c(C(F)(F)F)cc(-c4ccc(C(F)(F)F)cc4)nc23)sc1S(=O)(=O)NCCN(C)C    235 °C

Please examine the following record next.
Ask: Please supply the value of reported melting point for the item C=CCONC(=O)COc1cccc2c1c(C(=O)C(N)=O)c(CC)n2Cc1ccccc1
Result: 175 to 177 °C

###

Item-by-item account of melting point

Worked examples follow.
Cn1c(C#N)c(C#N)n(-c2cc(O)c(Cl)cc2F)c1=O    210 to 212 °C
FC(F)(F)c1cccc2c(-c3ccccc3)c(Sc3ccccc3)cnc12    153 to 155 °C
C=CC1(COC(C)=O)OC(OC2C(COCc3ccccc3)OC(OC)C(OCc3ccccc3)C2OCc2ccccc2)C(OC(C)=O)C(OC)C1OC(C)=O (centres undefined)    47 °C
COC(=O)C1CCC2C3CCC4CC(OC(C)=O)C(OC)CC4(C)C3C(NC3CCCCC3)CC12C (centres undefined)    87 to 89 °C
O=C1CN(C(=O)c2ccccc2)c2ccccc2N1    208 °C
CCCCCC(=O)c1c(C)nc2cc(OC)c(OC)cc2c1-c1ccc(OC)c(OC)c1    123 to 125 °C

Ask: Please supply the value of reported melting point for the item NS(=O)(=O)Cc1ccccc1OC(F)(F)F
Result: 127 °C

Ask: Please supply the value of reported melting point for the item Cc1ccc(OC2SCC(O)C(O)C2O)c(-c2ccncc2)n1 (centres undefined)
Result: 196 to 200 °C

Ask: Please supply the value of reported melting point for the item Nc1ccc(-c2nc(Cc3ccccc3)no2)cc1Br
Result: 144 to 145 °C

###

resultType: melting point

Worked examples follow.
COc1cccc2cc(C(=O)O)oc(=O)c12    251 to 253 °C
CCOC(=O)c1cc2cc(C)c(C(F)(F)F)cc2n1[C@H](C)CNC(=O)OC(C)(C)C    103 to 105 °C
CCOC(=O)/C=C1\CCOc2ccc([N+](=O)[O-])cc21    135 °C
S=c1nc(-c2ccncc2)[nH]n1Cc1ccccc1    160 to 162 °C
COc1ccc(C=CC(=O)c2cccc([N+](=O)[O-])c2)c(OC)c1    88.1 to 88.7 °C
CCOC(=O)c1cnn(-c2ccc(OCC(C)(C)C)c(C#N)c2)c1Cl    90 to 92 °C
O=C(O)COc1cccc(CCc2nc(-c3ccccc3)c(-c3ccccc3)[nH]2)c1    244 to 246 °C
CCCCc1nc2c(N)nc3ccccc3c2n1CCCNC(=O)OC(C)(C)C    193 °C

Please examine the following record next.
Ask: Please supply the value of reported melting point for the item CCCCCc1cccn1NS(=O)(=O)C1CCCC=C1C(=O)OCC (stereo not given)
Result: 60 to 61 °C

###

resultType: melting point

Worked examples follow.
NC(=NCC(F)(F)F)Nc1ccnc(CSCCNc2nc(N)n[nH]2)n1    199 to 201 °C
Cc1cc2c(cc1O)OC[C@@H](N1CCC(O)(c3ccc(F)cc3)CC1)[C@H]2O (relative stereo)    174 °C
COc1cc(NC(=O)Nc2ccccc2)c(O)c(OC)c1OC    123 to 125 °C
O=Cc1cc(O)ccc1-c1cccc(C(F)(F)F)c1    100 to 102 °C

Please examine the following record next.
Ask: Please supply the value of reported melting point for the item CC(C)(C)c1ccc(Nc2ncc(-c3ccnc(Cl)n3)c3ccccc23)cc1
Result: 257 to 258 °C
